Cited source: PubChem BioAssay (NCI)

tested on: SK-MEL-28 melanoma; assay: NCI-60 one-dose screen, 48 h; details: 10 µM unless noted
This is part of a sample that, as a whole, favours compounds with a hit. Of some 83,000 tested, about 20% had one in any assay. Active and inactive are the calls of the source. The calls were made as follows: active = growth percent below 10; inactive = the rest.
Lab note: assign the record to one of TRUE = active, FALSE = inactive

Prompt line: Dear all, I need the recorded test outcome for COc1ccc2nc(-c3ccc(Cl)cc3)cc(-c3nnc(SCC(=O)Nc4ccc(C(C)=O)cc4)n3-c3ccccc3)c2c1 , thank you.
Response line: FALSE

Prompt line: Dear all, I need the recorded test outcome for Nc1nc2c(c(=O)[nH]1)C1(C(=O)Nc3ccccc31)c1c(nc(N)[nH]c1=O)N2 , thank you.
Response line: FALSE

Prompt line: Dear all, I need the recorded test outcome for O=C(N/N=C/c1cccc(O)c1O)c1ccccc1 , thank you.
Response line: FALSE

---

tested on: MDA-MB-435 melanoma; assay: NCI-60 one-dose screen, 48 h; settings: 10 µM unless noted
Compounds without any hit were thinned out: in the full panel of roughly 83,000, 20% have a hit. Active and inactive are the calls of the source. The calls were made as follows: active = growth percent below 10; inactive = the rest.
Lab note: assign the record to one of 1 (active), -1 (inactive)

Here are 6 compounds together with their reported answers.
>  <Compound>
Cc1[nH]cnc1/C=C1\SC(N2CCCCC2)=NC1=O

>  <Answer Label>
-1

$$$$
>  <Compound>
OC(c1cc(-c2cccc(Cl)c2)nc2ccccc12)C1CCCCN1 (configuration not stated)

>  <Answer Label>
1

$$$$
>  <Compound>
COc1cnc2c(c1)C(=O)c1c-2n(CCCn2ccnc2)c(=O)c2cc(F)ccc12

>  <Answer Label>
1

$$$$
>  <Compound>
O=c1c2ccccc2c2nccn2c2cc(Cl)ccc12

>  <Answer Label>
-1

$$$$
>  <Compound>
COC(=O)[C@H](Cc1cn(C)cn1)NC(=O)[C@H](C)NC(=O)Nc1cc(C(F)(F)F)cc(C(F)(F)F)c1

>  <Answer Label>
1

$$$$
>  <Compound>
COc1cccc(/C=N/Nc2nc3ccccc3s2)c1OC

>  <Answer Label>
-1

$$$$

Prompt line: Dear all, I need the recorded test outcome for CCOC(=O)Nc1cc(-c2ccc(C)c(NS(C)(=O)=O)c2)nn2c(C)nnc12 , thank you.
Response line: 1

Prompt line: Dear all, I need the recorded test outcome for O=CN1N=C(c2ccc(Cl)cc2)CC1c1cccc(Nc2ccnc3cc(Cl)ccc23)c1 (configuration not stated) , thank you.
Response line: 1

Prompt line: Dear all, I need the recorded test outcome for O=C1/C(=C/c2ccccc2Cl)CCc2ccccc21 , thank you.
Response line: -1

Prompt line: Dear all, I need the recorded test outcome for Oc1c(Cl)cc(Cl)c(Cl)c1Cc1c(O)c(Cl)cc(Cl)c1Cl , thank you.
Response line: -1

Prompt line: Dear all, I need the recorded test outcome for ICCC(c1ccccc1)(c1ccccc1)c1ccccc1 , thank you.
Response line: -1

Prompt line: Dear all, I need the recorded test outcome for CCN(CC)CCNCC(=O)Oc1ccc(/C=C/C(=O)CC(=O)/C=C/c2ccc(OC(=O)CNCCN(CC)CC)c(OC)c2)cc1OC , thank you.
Response line: 1

Prompt line: Dear all, I need the recorded test outcome for COc1ccc(-c2cnc(SCC(=O)Nc3ccc(-c4nc5ccccc5s4)cc3)n2-c2ccc(OC)cc2)cc1 , thank you.
Response line: -1

Prompt line: Dear all, I need the recorded test outcome for COc1ccc2c3c(ccc2c1)C(=O)/C(=C\O)CC3 , thank you.
Response line: -1
